pKi: −log10 of the molar value.
Data export: pKi values recorded with 5-HT transporter (Rattus norvegicus, UniProt P31652).
Sequence (P31652 whole entry): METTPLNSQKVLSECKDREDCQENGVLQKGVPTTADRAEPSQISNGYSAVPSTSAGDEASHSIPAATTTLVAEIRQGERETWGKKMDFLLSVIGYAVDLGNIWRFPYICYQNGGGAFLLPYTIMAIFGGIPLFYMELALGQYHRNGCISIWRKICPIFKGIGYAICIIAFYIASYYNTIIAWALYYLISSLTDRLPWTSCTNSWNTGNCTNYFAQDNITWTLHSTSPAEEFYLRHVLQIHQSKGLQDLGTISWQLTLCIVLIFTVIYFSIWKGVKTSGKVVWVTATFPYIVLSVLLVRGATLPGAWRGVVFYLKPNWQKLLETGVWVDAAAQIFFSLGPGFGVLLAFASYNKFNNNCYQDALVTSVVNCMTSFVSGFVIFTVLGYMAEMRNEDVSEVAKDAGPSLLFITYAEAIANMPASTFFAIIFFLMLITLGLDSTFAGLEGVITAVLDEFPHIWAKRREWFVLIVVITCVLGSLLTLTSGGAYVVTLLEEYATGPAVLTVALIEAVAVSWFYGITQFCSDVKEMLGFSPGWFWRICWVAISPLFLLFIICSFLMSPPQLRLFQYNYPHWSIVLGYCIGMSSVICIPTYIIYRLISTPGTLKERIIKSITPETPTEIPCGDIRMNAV
quantity.kind: pKi

c1cnc2c(N3CCCN(C4CCC(c5c[nH]c6ccccc56)CC4)CC3)cccc2c1 (stereo not drawn) [Example 2] : 8.05
COc1ccccc1N1CCCN(C2CCC(c3c[nH]c4ccc(C#N)cc34)CC2)CC1 (stereo not drawn) [Example 4] : 7.57

P = N#Cc1ccc2[nH]cc(C3CCC(N4CCCN(c5cccc(C(F)(F)F)c5)CC4)CC3)c2c1 (stereo not drawn) [Example 10]
Q = N#Cc1ccc2[nH]cc(C3CCC(N4CCCN(c5cccc6cccnc56)CC4)CC3)c2c1 (stereo not drawn) [Example 7]
R = COc1ccccc1N1CCCN(C2CCC(c3c[nH]c4cc(F)ccc34)CC2)CC1 (stereo not drawn) [Example 5]
Exam item: In this exercise, place the 3 compounds in ascending sequence of their recorded pKi. Your answer should be the labels, listed in the requested order.
Marked response: P, Q, R

---

target: Human 5-HT Transporter (Homo sapiens, UniProt P31645); construct: endogenous in cells; assay: Inhibition of 3H-5-HT Uptake by cells Possessing the Human 5-HT Transporter (HC 5-HT Transporter); settings: Jar cells (human carcinoma) treated with staurosporine, 37° C., 5 min
Sequence (P31645 whole entry): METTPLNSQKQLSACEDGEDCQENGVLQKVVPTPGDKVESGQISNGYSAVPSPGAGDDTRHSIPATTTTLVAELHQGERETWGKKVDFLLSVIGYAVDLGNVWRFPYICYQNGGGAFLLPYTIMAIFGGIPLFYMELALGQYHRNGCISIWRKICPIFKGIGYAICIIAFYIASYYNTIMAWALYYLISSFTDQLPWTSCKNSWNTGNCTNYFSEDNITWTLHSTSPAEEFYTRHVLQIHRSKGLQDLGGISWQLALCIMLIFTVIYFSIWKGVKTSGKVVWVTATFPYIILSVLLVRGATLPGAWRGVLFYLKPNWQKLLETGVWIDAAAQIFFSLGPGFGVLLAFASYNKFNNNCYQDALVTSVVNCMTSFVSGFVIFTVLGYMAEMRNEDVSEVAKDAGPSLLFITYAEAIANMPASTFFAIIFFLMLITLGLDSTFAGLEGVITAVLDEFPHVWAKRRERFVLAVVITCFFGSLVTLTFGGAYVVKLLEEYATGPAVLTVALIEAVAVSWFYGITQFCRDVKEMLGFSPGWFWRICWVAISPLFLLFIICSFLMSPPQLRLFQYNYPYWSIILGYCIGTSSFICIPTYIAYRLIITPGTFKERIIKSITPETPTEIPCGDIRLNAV
quantity.kind: IC50 (nM)

Past entries and their recorded results:
COc1ccccc1N1CCCN(C2CCC(c3c[nH]c4cc(F)ccc34)CC2)CC1 (stereo not drawn) : 272
Fc1ccc2c(C3CCC(N4CCCN(c5cccc(C(F)(F)F)c5)CC4)CC3)c[nH]c2c1 (stereo not drawn) : 1280
Fc1ccc2c(C3CCC(N4CCCN(c5cccc6cccnc56)CC4)CC3)c[nH]c2c1 (stereo not drawn) : 317
COc1ccccc1N1CCCN(C2CCC(c3c[nH]c4ccc(F)cc34)CC2)CC1 (stereo not drawn) : 1140
c1cnc2c(N3CCCN(C4CCC(c5c[nH]c6ccccc56)CC4)CC3)cccc2c1 (stereo not drawn) : 399
COc1ccccc1N1CCCN(C2CCC(c3c[nH]c4ccccc34)CC2)CC1 (stereo not drawn) : 578
N#Cc1ccc2[nH]cc(C3CCC(N4CCCN(c5cccc(C(F)(F)F)c5)CC4)CC3)c2c1 (stereo not drawn) : 3760

P = Fc1ccc2[nH]cc(C3CCC(N4CCCN(c5cccc(C(F)(F)F)c5)CC4)CC3)c2c1 (stereo not drawn)
Q = Fc1ccc2[nH]cc(C3CCC(N4CCCN(c5cccc6cccnc56)CC4)CC3)c2c1 (stereo not drawn)
Exam item: Select one: P or Q . Criterion: greater recorded IC50. State your choice using its label.
Marked response: P
